Where do the numbers come from? From PubChem BioAssay AID1578.

# Assay Text: NOD1 signaling inhibitors, primary screen, cell-based, luminescence, uHTS (AID 1578);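 note: HEK-293T reporter cells stimulated with the NOD1 agonist gamma-tri-DAP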
# Study Conditions: NOD1-driven NF-kB luciferase reporter cells, at 4 µM, active compounds read high
Screen size: about 290,000 compounds; about 3,000 (1%) were called active. For the sample, actives were picked, then their nearest neighbours and some compounds at random.
Answer each item with its documented inhibition.
Report the value in % with no unit label.

*Q* Consider the compound Oc1ccc(/C=N/NC(=S)N2CCOCC2)cc1 and give its measured inhibition.
*A* 4.2

*Q* Query (compound): COC(=O)/C(=N/Nc1ccccc1)N1CCCc2ccccc21 ; field requested: inhibition
*A* -10.5

*Q* I would be grateful if you could share the reported inhibition for Cc1ccc(/C=N/NC(=S)N2CCOCC2)cc1 .
*A* 39.7

*Q* Field request: inhibition | item: COC(=O)c1sc(NC(=S)NC(=O)c2cccc(Br)c2)nc1C
*A* 25.2

*Q* Record request: inhibition value, item O=C(O)c1cccc(COc2ccccc2Cl)c1
*A* 97.2

*Q* inhibition lookup needed for CN(C)S(=O)(=O)c1cccc(N=C2NN=C(c3ccccc3)CS2)c1 , thanks.
*A* 26.1

*Q* // query inhibition value for entry CCOC(=O)/C(=N/Nc1ccc(Cl)cc1)S(=O)(=O)c1ccccc1
*A* -14.8

*Q* What does the data say about its inhibition? Entry: CN(C)C(=O)c1cc(C(=O)c2ccc(C(F)(F)F)cc2F)c[nH]1
*A* 21.8

*Q* Given the entry CS(=O)(=O)c1cnc(-c2ccccc2)nc1-c1ccccc1Cl , report its measured inhibition.
*A* 23.1

*Q* Sample O=C(CCN1C(=O)/C(=C/c2ccccc2)SC1=S)NNC(=O)c1ccncc1 — what was its inhibition?
*A* -47.5

*Q* Look up inhibition: CC12C(=O)N(c3ccc(C(=O)N4CCOCC4)cc3)C(=O)C1C1c3ccccc3C2c2ccccc21 (stereo not drawn)
*A* -20.5

*Q* inhibition for CN1C/C(=C/c2ccsc2)C(=O)/C(=C/c2ccsc2)C1 ?
*A* -44.5

*Q* Dear colleague, I am looking for the recorded inhibition of the following compound: COc1ccc(OC)c2c1C(=O)c1ccccc1C2=O
*A* -6.7

*Q* Requested read-out: inhibition. Entry: C=CCn1c(Sc2nnc(C)s2)nc2c1c(=O)[nH]c(=O)n2C
*A* -4.6

*Q* // returns reported inhibition for input CCc1ccc(C2=NNC(=Nc3cccc(S(=O)(=O)N(C)C)c3)SC2)cc1
*A* 72.3

*Q* Any idea what inhibition was measured for CCOC(=O)/C(=N\Nc1ccccc1)P(=O)(c1ccccc1)c1ccccc1 ?
*A* 43.4

*Q* For the compound shown here, COc1ccc(N)c2c1C(=O)c1ccccc1C2=O , give the reported inhibition.
*A* -34.4

*Q* Given the entry O=C1/C(=C/c2ccc([N+](=O)[O-])cc2)C=C(c2ccccc2)N1c1ccc(O)cc1 , report its measured inhibition.
*A* 28.6

*Q* What does the record list as inhibition for CC(C)N1C/C(=C/c2cccnc2)C(=O)/C(=C/c2cccnc2)C1 ?
*A* 49.5

*Q* Fill in: inhibition of CCCCC(=O)OCC(=O)c1ccc(OCC)cc1 is ___
*A* 31.2

*Q* I would be grateful if you could share the reported inhibition for COc1ccc(OCc2ccc(C(=O)O)cc2)cc1 .
*A* -70.3

*Q* Please look up its inhibition: CCOC(=O)c1c(Nc2ccccc2)sc(/C=C2\C=Nc3ccccc32)c1O
*A* -68

*Q* Entry COc1ccc(OCc2cccc(C(=O)NN)c2)cc1 : reported inhibition = ?
*A* 38.9

*Q* For the compound Cc1cc(C)n(C(=O)/C(C#N)=N/Nc2cc(Cl)cc(Cl)c2)n1 , what inhibition is on record?
*A* 40.4

*Q* # lookup: inhibition of O=C1c2ccccc2C(=O)C2OC12 (stereo not drawn)
*A* 70.9

*Q* Name the reported inhibition value associated with the compound CCOc1ccc(OCc2cccc(C(=O)N3CCCC3)c2)cc1
*A* -38

*Q* Using the record for CCN(CC)CCn1c(=N)n(CC(O)c2ccco2)c2ccccc21 (stereo not drawn) , report its inhibition.
*A* 62

*Q* Reported inhibition for COc1cccc(NC(=O)CN2C(=O)COc3ccc(Cl)cc32)c1 : what is it?
*A* 26.8

*Q* Can you look up the measured inhibition of CCOc1ncccc1C(=O)Nc1nnc(C)s1 for me?
*A* -28.7

*Q* Reported inhibition, compound CC(C)N1C/C(=C/c2ccsc2)C(=O)/C(=C/c2ccsc2)C1 : ____
*A* 80.5

*Q* So what's the measured inhibition for this one? Cc1ccc(CSc2nn3c(=O)c(C)nnc3s2)cc1
*A* -32.1

*Q* Fill in the blank: the reported inhibition of CCCCN(C)Cc1cc(=O)oc2ccc3ccccc3c12 is ____.
*A* -5.4

*Q* Value lookup for inhibition; key = CCOc1ccc(OCc2cccc(C(=O)N(CC)CC)c2)cc1
*A* -59.7

*Q* Name the recorded inhibition for CCOc1ccc(OCC)c(NC(=O)CN2CCN(c3cccc(C)c3)C(C)C2)c1 (stereo not drawn) .
*A* 29.9

*Q* Entry CC(=O)Nc1ccc(C2=NNC(=Nc3cccc(S(=O)(=O)N(C)C)c3)SC2)cc1 has what inhibition?
*A* -32.6

*Q* So what's the measured inhibition for this one? CC1CN(S(=O)(=O)c2ccccc2)CC(C)O1 (stereo not drawn)
*A* -8.4

*Q* Reported inhibition for Cc1ccccc1C1C(=O)c2ccccc2C1=O : what is it?
*A* -39.1

*Q* Fill in: inhibition of CCOc1ccc(OCc2cccc(C(=O)O)c2)cc1 is ___
*A* 97.5

*Q* Return reported inhibition; argument: Cc1ccc(NC(=O)C2CC(=O)n3ncnc3N2)cc1C (stereo not drawn)
*A* -33.1

*Q* GET /values?readout=inhibition&item= O=C(N/N=C/c1ccc(OC(=O)c2cccc(F)c2)cc1)c1cccnc1
*A* -21

*Q* Look up inhibition: S=C(N/N=C/c1ccc(Cl)cc1)N1CCOCC1
*A* 63.9

*Q* # get_value(readout='inhibition', item= CCCn1c(=N)n(CC(O)c2ccco2)c2ccccc21 (stereo not drawn) )
*A* 1.5

*Q* Consider the compound shown here: O=S(=O)(c1cccs1)N1CCN(S(=O)(=O)c2cccs2)CC1 What is its recorded inhibition?
*A* -16.1

*Q* Recorded inhibition of CCOC(=O)/C(=N/Nc1ccccc1)N1CCCc2ccccc21 , please.
*A* 90.5

*Q* Quick check: inhibition of COc1ccc(C(=O)N2CCC(C(=O)c3c(C)cc(C)cc3C)CC2)cc1 ?
*A* -8.8

*Q* Find the recorded inhibition belonging to CCOc1ccc(C(=O)CCN2CCCCC2)cc1 and report it.
*A* 44

*Q* # inhibition lookup, item O=C1/C(=C/c2ccc([N+](=O)[O-])cc2)C=C(c2ccccc2)N1c1ccccc1
*A* -31.4

*Q* Given the compound O=C1c2ccccc2C(=O)C1c1ccccn1 , what is its reported inhibition?
*A* -8.4
